# assayTarget: human Tissue Factor (TF) (human, UniProt P13726 33-295)
# methodSummary: cell-based or functional assay
Item-by-item account of % IL8 at 16 nM antibody
Note: unit % is implicit; provide only the numeric part.

Answered examples (5):
[
  {
    "binder": "25A3 (antibody, human IgG1, V domains shown) VH: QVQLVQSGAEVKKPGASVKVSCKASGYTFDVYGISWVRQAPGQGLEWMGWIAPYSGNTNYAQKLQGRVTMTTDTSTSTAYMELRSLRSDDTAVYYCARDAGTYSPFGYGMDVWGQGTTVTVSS VL: DIQMTQSPSTLSASVGDRVTITCQASQSINNWLAWYQQKPGKAPKLLIYKAYNLESGVPSRFSGSGSGTEFTLTISSLQPDDFATYYCQLFQSLPPFTFGGGTKVEIK",
    "% IL8 at 16 nM antibody, %": 8
  },
  {
    "binder": "25G9 (antibody, human IgG1, V domains shown) VH: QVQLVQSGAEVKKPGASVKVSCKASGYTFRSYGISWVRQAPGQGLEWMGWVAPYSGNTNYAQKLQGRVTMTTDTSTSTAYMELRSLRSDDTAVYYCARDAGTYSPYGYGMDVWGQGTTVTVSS VL: DIQMTQSPSTLSASVGDRVTITCQASQSIDSWLAWYQQKPGKAPKLLIYSASYLESGVPSRFSGSGSGTEFTLTISSLQPDDFATYYCQRFQSLPPFTFGGGTKVEIK",
    "% IL8 at 16 nM antibody, %": 15
  },
  {
    "binder": "39A (antibody, human IgG1, V domains shown, Human IgG1; also called antibody designated 39A) VH: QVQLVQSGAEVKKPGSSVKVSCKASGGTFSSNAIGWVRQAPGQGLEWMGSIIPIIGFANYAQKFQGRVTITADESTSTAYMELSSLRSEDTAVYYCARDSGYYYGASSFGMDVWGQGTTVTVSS VL: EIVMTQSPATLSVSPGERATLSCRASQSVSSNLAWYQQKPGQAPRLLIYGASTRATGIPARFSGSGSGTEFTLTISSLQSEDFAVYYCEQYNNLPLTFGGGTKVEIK",
    "% IL8 at 16 nM antibody, %": 2
  },
  {
    "binder": "25G (antibody, human IgG1, V domains shown, Human IgG1; also called antibody designated 25G) VH: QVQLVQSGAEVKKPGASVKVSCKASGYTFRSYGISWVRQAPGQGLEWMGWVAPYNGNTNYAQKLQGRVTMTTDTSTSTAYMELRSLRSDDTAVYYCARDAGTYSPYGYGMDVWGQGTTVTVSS VL: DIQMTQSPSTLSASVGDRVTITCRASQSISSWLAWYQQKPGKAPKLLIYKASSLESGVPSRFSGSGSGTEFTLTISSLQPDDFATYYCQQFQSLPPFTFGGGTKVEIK",
    "% IL8 at 16 nM antibody, %": 16
  },
  {
    "binder": "25A (antibody, human IgG1, V domains shown, Human IgG1; also called antibody designated 25A; Antibody Clone 25A) VH: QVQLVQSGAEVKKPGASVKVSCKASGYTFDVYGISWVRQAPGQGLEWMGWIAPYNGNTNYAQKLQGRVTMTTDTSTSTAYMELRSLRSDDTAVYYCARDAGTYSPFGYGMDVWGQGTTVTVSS VL: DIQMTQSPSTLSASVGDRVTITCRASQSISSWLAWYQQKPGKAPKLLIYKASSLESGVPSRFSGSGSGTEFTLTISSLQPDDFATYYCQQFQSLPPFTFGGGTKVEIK",
    "% IL8 at 16 nM antibody, %": 10
  }
]

Input 54E (antibody, human IgG1, V domains shown, Human IgG1; also called antibody designated 54E) VH: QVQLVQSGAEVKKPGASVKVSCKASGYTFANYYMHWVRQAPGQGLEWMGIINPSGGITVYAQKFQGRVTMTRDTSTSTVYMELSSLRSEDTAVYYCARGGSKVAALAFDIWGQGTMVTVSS VL: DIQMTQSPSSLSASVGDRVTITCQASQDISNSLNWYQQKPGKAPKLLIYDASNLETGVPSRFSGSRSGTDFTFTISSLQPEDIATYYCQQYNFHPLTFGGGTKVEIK . Output % IL8 at 16 nM antibody: 3

Input 43B (antibody, human IgG1, V domains shown) VH: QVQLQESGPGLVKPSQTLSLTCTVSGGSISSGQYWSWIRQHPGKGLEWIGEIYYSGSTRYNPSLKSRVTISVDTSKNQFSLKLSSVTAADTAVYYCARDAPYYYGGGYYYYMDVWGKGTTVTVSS VL: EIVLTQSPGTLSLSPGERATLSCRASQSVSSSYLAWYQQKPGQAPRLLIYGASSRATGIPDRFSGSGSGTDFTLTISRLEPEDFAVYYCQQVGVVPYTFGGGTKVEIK . Output % IL8 at 16 nM antibody: 5

Input 25A5 (antibody, human IgG1, V domains shown) VH: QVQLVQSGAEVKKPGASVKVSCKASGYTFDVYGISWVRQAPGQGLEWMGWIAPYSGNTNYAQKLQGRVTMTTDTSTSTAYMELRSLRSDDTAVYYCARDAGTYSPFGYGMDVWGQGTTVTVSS VL: DIQMTQSPSTLSASVGDRVTITCRASESISNWLAWYQQKPGKAPKLLIYKAYSLEYGVPSRFSGSGSGTEFTLTISSLQPDDFATYYCQQFQKLPPFTFGGGTKVEIK . Output % IL8 at 16 nM antibody: 7
